# System: PPARg:RXRa DBDmut IVT, anti-RXR (DBD mutation: RXRa K156A/R161A, NR concentration 270 nM, RXRa partner concentration 90 nM)
# test.description: PBM binding z-score (relative to random genomic background probes); higher = stronger binding; sequences stand for … in GC…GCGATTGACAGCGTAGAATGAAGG
Class yes (1): PBM binding z-score at least 4. Class no (0): PBM binding z-score below 4.

residue.sequence: TCTTGTAGATCGAAGGTTAAGAAAGCCGAAGCCT
classification: no (0)

residue.sequence: CCAGACAGGTGAAAGGTTACTCAGTCTGGTACGC
classification: no (0)

residue.sequence: ATCTCTAGGTGAAGTTCAGTGAAAGATCGATAGA
classification: yes (1)

residue.sequence: CAAATTAGGTCACCGGAAGGTCAAAGTCCGCATG
classification: yes (1)

residue.sequence: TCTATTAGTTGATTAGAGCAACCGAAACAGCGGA
classification: no (0)

residue.sequence: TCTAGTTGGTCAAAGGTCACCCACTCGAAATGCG
classification: no (0)

residue.sequence: CGTCCCAGGTCAAAGGTCAGTGAAGAGATGACGG
classification: no (0)

residue.sequence: CTCGAAAGGTCGGTTGAGGTGTGTATACGGATAA
classification: no (0)

residue.sequence: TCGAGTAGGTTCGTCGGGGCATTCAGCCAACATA
classification: no (0)

residue.sequence: CAAACTAGGTCACAGAGGTCTAAGTCCGTGCGTA
classification: yes (1)

residue.sequence: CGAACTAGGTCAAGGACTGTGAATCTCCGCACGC
classification: yes (1)

residue.sequence: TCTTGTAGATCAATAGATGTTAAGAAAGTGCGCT
classification: no (0)
